- tested.target: T1, Ebola virus GP with a C-terminal polyhistidine tag (Sino Biologicals, Catalog #40442-V08B1) (Ebola virus, UniProt P87666 33-650)
- T1 construct: also called EbolaGP.his; Ebola virus GP.his
- assay.name: SPR 37C, mAb captured
property.measured: Kd
Reply with the number and its unit after it.

{"binder": "H1H17142P (antibody, V domains shown) VH: EVQLVESGGGLVQPGGSLRLSCAASGFTFSSYAMTWVRQAPGKGLEWVSSISGSGTSTYYADSVKGRFTISRDNSKNTLYLQMNSLRAEDTALYYCSRDIYTWNFLSLIGGMDVWGQGTTVTVSS VL: DIQMTQSPSSLSASVGDRVTITCRASQGIRIDLGWYQQKPGKAPNRLIYAASSLQGGVPSRFSGSGSGTEFTLTISSLQPEDFATYYCLQQNSYPWTFGQGTKVEIK", "result": "6.68 nM"}
{"binder": "H1H17223P (antibody, V domains shown) VH: EVQLVESGGGLVQPGGSLRLSCAASGFTFRTYDMHWVRQATGKGLEWVSAIGTAGDTYYPGSVKGRFTISRENAKNSLYLQMNSLRAGDTAVYYCARTIFGVVLTFDYWGQGTLVTVSS VL: DIQMTQSPSSLSASVGDRVTITCRASQSISSSLNWYQQKPGKAPKLLIYAASSLHSGVPSRFSGSGSGTDFTLTISSLQPEDFATYYCQQTYSIPPTTFGQGTKVEIK", "result": "6.89 nM"}

API: the following record is the query input.
Which Kd value is on record for H1H17196P (antibody, V domains shown) VH: EVQLVESGGGLVQPGGSLRLSCAASGFTFRSYDMHWVRQGSGKGLEWVSAIGTAGDTYYLGSVKGRFTISRENAKNSLYLQMNSLRAGDTAVYYCARAWFGDVFLDYWGQGTLVTVSS VL: EIVMTQSPATLSVSPGERATLSCRASQSVSSNLAWYQQKPGQAPRLLIYGASTRATGIPARFSGSGSGTEFTLTISSLQSEDFAGYYCQQYNNRLTFGGGTKVEIK ?
0.317 nM
